Each entry below carries its recorded TGI.
# Test system: HT29 colon
# Protocol Notes: NCI tumour cell line growth inhibition, 48 h
Give just the number in µM; leave the unit off.

The cases that follow already have their TGI on record.
Compound Structure: CSc1ccc(/C=C2\N=C(c3ccccc3)N(/N=C/c3cc4cc(C)ccc4nc3Cl)C2=O)cc1
Result Units: µM
TGI: 62.1
//
Compound Structure: O=C(/C=C/c1cccs1)c1ccccc1Cl
Result Units: µM
TGI: 42.5

Shifting focus to the compound that follows.
stdin: Consider the compound `COc1ccc(CCc2cc(OC)c(OC)c(OC)c2)cc1` tested on HT29 colon; state its TGI.
stdout: 1.44

* * *

# Tested on: HT29 colon
# Protocol Notes: NCI tumour cell line growth inhibition, 48 h
Result Type: TGI

Below: 5 compounds and their reported TGI.
Compound: CCN(CC)c1ccc2cc(-c3nc4ccccc4c(=O)[nH]3)c(=N)oc2c1
TGI: > 100 µM
--
Compound: COc1cnc2cc(C(=O)O)c3ccccc3c2c1
TGI: > 100 µM
--
Compound: Cc1nc(N)nc2ccccc12
TGI: > 100 µM
--
Compound: NC1=NCC(CN2CCCC2)O1 (stereo unspecified)
TGI: > 100 µM
--
Compound: CCC(CC(C)C)Nc1ccc(NC(CC)CC(C)C)cc1 (stereo unspecified)
TGI: 30.5 µM

stdin: Param request: TGI | system HT29 colon | item `O=C(Nc1ccccc1C(=O)N/N=C(\c1ccccc1)c1ccccn1)c1ccc(F)cc1`
stdout: > 100 µM

stdin: Determine reported TGI for COc1ccc(C2CCc3cc4c(cc3/C2=N/OC(C)=O)OCO4)cc1OC (stereo unspecified) ; test system: HT29 colon.
stdout: > 100 µM

stdin: Look up and report TGI, with HT29 colon as system, for CC1CCC2N(C1)CC1C3(O)CC45OC6(O)C(O)CCC4(C)C6CCC5C3(O)CC(O)C1(O)C2(C)O (stereo unspecified)
stdout: > 100 µM

stdin: Using HT29 colon as the test system, report measured TGI of `COC(=O)c1c(-c2ccc(Cl)cc2)cc2c3ccccc3n(C)c2c1C(=O)OC` .
stdout: > 100 µM

stdin: Lab note: record TGI of C[C@]12CC[C@H](OC3CCCCO3)CC1=CC[C@@H]1C2CC[C@]2(C)/C(=N/O)CCC12 (stereo partly specified) tested on HT29 colon.
stdout: 26.8 µM

stdin: Please respond with reported TGI (system HT29 colon) for `OCNCCNc1nc2ccccc2c2[nH]c3ccccc3c12` .
stdout: > 50 µM
